// data source = ChEMBL document CHEMBL5038595

Target: Cyclic GMP-AMP synthase (Mus musculus)
Experiment: Inhibition of mouse cGAS expressed in RAW-Lucia ISG transfected with HT-DNA assessed as suppression of lipofectamine 2000:ds-DNA complex induced activation of cGAS incubated for 1 hr by Quanti-luc reagent based assay
Format: cell-based
Reported property: IC50 (µM)

COc1ccc(OC)c2c1NC13CN(C(=O)CO)CCC21Nc1c3ccc(Cl)c1Cl (stereo not drawn) | 20.1

P = CNCC(=O)N1CCc2[nH]c3c(Cl)c(Cl)cc(-c4ccn(C)n4)c3c2C1
Q = O=C(CO)N1CCC2Nc3c(ccc(Cl)c3Cl)C2(c2c[nH]c3ccccc23)C1 (stereo not drawn)
When the recorded IC50 values are compared, which is smaller: that of P or that of Q ? Field: selected label. Fill in the label of the entry you choose.
Q

1 = Cn1ccc(-c2cc(Cl)c(Cl)c3[nH]c4c(c23)CN(C(=O)OC(C(F)(F)F)C(F)(F)F)CC4)n1
2 = CC(=O)OCC(=O)N1CCC2=Nc3c(ccc(Cl)c3Cl)C2(c2c[nH]c3ccccc23)C1 (stereo not drawn)
When the recorded IC50 values are compared, which is smaller: that of 1 or that of 2 ? Field: selected label. Fill in the label of the entry you choose.
1

I = Cn1ccc(-c2cc(Cl)c(Cl)c3[nH]c4c(c23)CN(C(=O)CN)CC4)n1
II = O=C(CO)N1CCC2=Nc3c(ccc(Cl)c3Cl)C2(c2c[nH]c3cc(Cl)ccc23)C1 (stereo not drawn)
When the recorded IC50 values are compared, which is smaller: that of I or that of II ? Field: selected label. Fill in the label of the entry you choose.
I
(I: 10.9 µM, II: 22 µM)

----------
Target: UniProtKB Q8C6L5
Assay: Inhibition of mouse cGAS expressed in RAW-Lucia ISG transfected with HT-DNA assessed as suppression of lipofectamine 2000:ds-DNA complex induced activation of cGAS incubated for 1 hr by Quanti-luc reagent based assay
Format: cell-based
Reported property: IC50 (µM)

I = CC(=O)OCC(=O)N1CCC2=Nc3c(ccc(Cl)c3Cl)C2(Nc2cc(C(F)(F)F)cc(C(F)(F)F)c2)C1 (stereo unspecified)
II = Cn1ccc(-c2cc(Cl)c(Cl)c3[nH]c4c(c23)CN(C(=O)CO)CC4)n1
Select the item with the higher value of IC50 from the options I and II listed. Field: selected label. Fill in the label of the entry you choose.
II

----------
Target: Cyclic GMP-AMP synthase (Mus musculus, UniProt Q8C6L5)
Sequence (Q8C6L5 whole entry): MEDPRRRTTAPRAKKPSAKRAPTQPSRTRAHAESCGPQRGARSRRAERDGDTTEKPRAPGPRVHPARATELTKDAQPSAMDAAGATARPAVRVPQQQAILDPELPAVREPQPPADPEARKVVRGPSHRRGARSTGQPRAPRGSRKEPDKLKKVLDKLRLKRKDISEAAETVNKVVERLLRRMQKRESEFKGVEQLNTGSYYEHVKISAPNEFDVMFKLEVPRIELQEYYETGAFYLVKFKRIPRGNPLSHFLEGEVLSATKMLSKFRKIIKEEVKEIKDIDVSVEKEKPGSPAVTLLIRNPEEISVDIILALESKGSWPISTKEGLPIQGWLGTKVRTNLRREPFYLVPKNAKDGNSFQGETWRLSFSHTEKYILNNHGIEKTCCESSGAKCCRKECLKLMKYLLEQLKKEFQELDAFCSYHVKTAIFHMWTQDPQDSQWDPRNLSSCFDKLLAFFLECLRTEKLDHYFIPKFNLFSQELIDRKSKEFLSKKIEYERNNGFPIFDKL
Test: Inhibition of mouse cGAS expressed in RAW-Lucia ISG transfected with HT-DNA assessed as suppression of lipofectamine 2000:ds-DNA complex induced activation of cGAS incubated for 1 hr by Quanti-luc reagent based assay
Format: cell-based
Reported property: IC50 (µM)

O=C(CO)N1CCC2=Nc3c(ccc(Cl)c3Cl)C2(Nc2cc(C(F)(F)F)cc(C(F)(F)F)c2)C1 (centres undefined) | 9.56
Cn1ccc(-c2cc(Cl)c(Cl)c3[nH]c4c(c23)CN(C(=O)CNC(=O)c2cccc(-c3noc(C(F)(F)F)n3)c2)CC4)n1 | 7.62
O=C(CO)N1CCC2=Nc3c(ccc(Cl)c3Cl)C2(Nc2ccc(C(F)(F)F)cc2)C1 (centres undefined) | 9.94
Cc1cc(CC(=O)NCC(=O)N2CCc3[nH]c4c(Cl)c(Cl)cc(-c5ccn(C)n5)c4c3C2)no1 | 9.2
